Origin of the recorded values: patent US10494376B2

Target: Full-length PRMT5 enzyme (NCBI Reference sequence NP_006100.2) co-expressed with His6-MEP50 (Homo sapiens (Human), UniProt O14744)
Sequence (O14744 whole entry): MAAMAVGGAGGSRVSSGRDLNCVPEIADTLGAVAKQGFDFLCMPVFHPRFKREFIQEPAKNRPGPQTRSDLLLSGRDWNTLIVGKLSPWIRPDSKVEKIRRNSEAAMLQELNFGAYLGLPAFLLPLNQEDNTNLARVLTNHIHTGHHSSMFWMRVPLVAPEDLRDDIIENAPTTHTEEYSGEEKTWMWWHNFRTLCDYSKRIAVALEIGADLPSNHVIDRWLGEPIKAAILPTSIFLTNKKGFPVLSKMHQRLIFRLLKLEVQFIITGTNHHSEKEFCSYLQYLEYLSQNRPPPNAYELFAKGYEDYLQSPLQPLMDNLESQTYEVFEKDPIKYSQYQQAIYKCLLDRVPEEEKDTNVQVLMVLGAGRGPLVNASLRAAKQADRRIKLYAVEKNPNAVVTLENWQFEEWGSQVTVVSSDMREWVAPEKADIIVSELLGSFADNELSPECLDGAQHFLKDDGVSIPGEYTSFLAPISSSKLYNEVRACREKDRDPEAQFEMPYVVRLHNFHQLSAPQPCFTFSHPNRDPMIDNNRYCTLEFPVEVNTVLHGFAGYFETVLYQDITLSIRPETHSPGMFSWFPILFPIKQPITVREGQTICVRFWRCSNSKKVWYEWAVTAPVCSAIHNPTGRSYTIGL
Sequence (Q9BQA1 whole entry partner): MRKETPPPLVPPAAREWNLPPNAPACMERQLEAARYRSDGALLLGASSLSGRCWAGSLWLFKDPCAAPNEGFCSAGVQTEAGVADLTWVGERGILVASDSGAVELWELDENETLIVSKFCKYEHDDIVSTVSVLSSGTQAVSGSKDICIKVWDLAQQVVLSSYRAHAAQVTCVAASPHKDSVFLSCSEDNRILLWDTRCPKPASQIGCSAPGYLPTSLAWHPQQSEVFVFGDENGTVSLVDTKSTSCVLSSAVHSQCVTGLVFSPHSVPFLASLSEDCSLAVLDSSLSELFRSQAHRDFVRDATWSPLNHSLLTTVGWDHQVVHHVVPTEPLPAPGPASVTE
Assay: Revised PRMT5 Biochemical Assay
Conditions: 1 μM peptide substrate, 1 μM S-Adenosyl methionine, 4 hours at 37 degree Celsius, Transcreener EPIGEN fluorescence polarisation
Structures can show the parent of a compound that is named as a salt.
Listed here are compounds together with their documented pIC50.
pIC50 field: float, defined as -log10 of concentration (mol/L).

CC(C)N(C)C(=O)c1ccc(C(=O)NC[C@@H](O)[C@@H]2Cc3ccccc3CN2)cc1 [Example 39] : 6.07
O=C(NC[C@@H](O)[C@@H]1Cc2ccccc2CN1)c1ccc(CC(=O)N2CCCCC2)nc1 [Example 72, dihydrochloride] : 6.23
O=C(NC[C@@H](O)[C@@H]1Cc2ccccc2CN1)c1cc(OC2CCOCC2)ncc1Cl [Example 75, dihydrochloride] : 5.92

Using the record for O=C(NC[C@@H](O)[C@@H]1Cc2ccccc2CN1)c1ccccc1 [Example 3] , report its pIC50.
5.08

Using the record for O=C(NC[C@@H](O)[C@@H]1Cc2ccccc2CN1)c1ccc(C(=O)N2Cc3cccnc3C2)cc1 [Example 96] , report its pIC50.
5.86

Using the record for CCOc1cc(C(=O)N2C3CCC2COC3)ncc1C(=O)NC[C@@H](O)[C@@H]1Cc2ccccc2CN1 [Example 82, dihydrochloride] , report its pIC50.
6.97
